IC50 values for the compounds below.
- Tested on: 22Rv1 cells
- assayExplanation: Cell-based assay: anti-proliferative activity, Cell Counting Kit-8, 72 hours (22Rv1)
- details: Homo sapiens
Where a name gives a salt, the structure may show the parent alone.
# value in µM; strip the unit string

compound: CS(=O)(=O)c1cnc2ccc(-c3cc(F)c(O)c(Cl)c3)cc2c1Nc1ccc(N2CCCC(N)C2)nc1 (stereo not shown) [Example 909]
unitAnnotation: µM
endpointResult: 0.44
//
compound: CS(=O)(=O)c1cnc2ccc(-c3cc(Cl)c(O)c(Cl)c3)cc2c1N[C@H]1CC[C@H](CN2CCCC2)CC1 [Example 890, hydrochloride]
unitAnnotation: µM
endpointResult: 0.94
//
compound: CCC(=O)c1cnc2ccc(-c3cc(Cl)c(O)c(Cl)c3)cc2c1Nc1ccc(N2CCC[C@H](N)C2)nc1 [Example 934]
unitAnnotation: µM
endpointResult: 0.02

Kindly consider the entry below.
Query: Given the entry CC(=O)c1cnc2ccc(-c3ccc(O)cc3)cc2c1N[C@H]1CC[C@H](CN(C)C)CC1 [Example 935, dihydrochloride] , report its measured IC50.
Response: 0.53

###

- Test system: HT-1197 cells
- assayExplanation: Cell-based assay: anti-proliferative activity, Cell Counting Kit-8, 72 hours (HT-1197, negative control without MELK expression)
- details: Homo sapiens, HT1197, 72 h, HT1197 cells (negative control), 72 hours
Structures can show the parent of a compound that is named as a salt.
Classification by IC50 follows these ranges: low-valued (below 3 µM), mid-valued (3 µM to below 10 µM), high-valued (10 µM or more)

Completed entries (count: 5):
compound: CC(=O)c1cnc2ccc(-c3cc(F)c(O)c(Cl)c3)cc2c1N[C@H]1CC[C@H](NC(=O)C2CCCN2C)CC1 (stereo partly shown) [Example 874, hydrochloride]
classLabel: low-valued
//
compound: CN1CCC(n2cc(Nc3c(C(=O)C(C)(C)C)cnc4ccc(-c5cc(Cl)c(O)c(Cl)c5)cc34)cn2)CC1 [Example 931, hydrochloride]
classLabel: high-valued
//
compound: CC(N)C(=O)N[C@H]1CC[C@H](Nc2c(C(=O)C(C)(C)C)cnc3ccc(-c4cc(F)c(O)c(Cl)c4)cc23)CC1 (stereo partly shown) [Example 932, hydrochloride]
classLabel: mid-valued
//
compound: CS(=O)(=O)c1cnc2ccc(-c3cc(Cl)c(O)c(Cl)c3)cc2c1Nc1ccc(N2CCCC(N)C2)nc1 (stereo not shown)
classLabel: high-valued
//
compound: CN(C)C1CCN(c2ccc(Nc3c(S(C)(=O)=O)cnc4ccc(-c5cc(F)c(O)c(Cl)c5)cc34)cn2)C1 (stereo not shown) [Example 889, hydrochloride]
classLabel: high-valued

Query: Exam item: assign `CCCC(=O)c1cnc2ccc(-c3cc(Cl)c(O)c(OC)c3)cc2c1Nc1ccc(N2CCNCC2)nc1` to the correct category.
Response: low-valued

Query: Exam item: assign CC(=O)c1cnc2ccc(-c3ccc4nc[nH]c4c3)cc2c1Nc1ccc(OCCN(C)C)nc1 [Example 902, hydrochloride] to the correct category.
Response: high-valued

###

IC50 values for the compounds below.
- Tested on: T47D cells
- assayExplanation: Cell-based assay: anti-proliferative activity, Cell Counting Kit-8, 72 hours (T47D)
- details: Homo sapiens, T47D, 72 h
# value in µM; strip the unit string

Query: Given the entry `CC(=O)c1cnc2ccc(-c3cc(F)c(O)c(Cl)c3)cc2c1N[C@H]1CC[C@H](NC(=O)CN(C)C)CC1` , report its measured IC50.
Response: 0.033

Query: Given the entry `CC(=O)c1cnc2ccc(-c3cc(F)c(O)c(Cl)c3)cc2c1N[C@H]1CC[C@H](N(C)C)CC1` , report its measured IC50.
Response: 0.05

Query: Given the entry `CC(=O)c1cnc2ccc(-c3cc(F)c(O)c(Cl)c3)cc2c1N[C@H]1CC[C@H](CN2CCCC2)CC1` , report its measured IC50.
Response: 0.11

Query: Given the entry COc1cc(-c2ccc3ncc(C(=O)C4CC4)c(Nc4ccc(C(O)CN(C)C)cc4)c3c2)cc(Cl)c1O (stereo not drawn) , report its measured IC50.
Response: 0.41

Where do the numbers come from? From patent US9120749B2.
